System: human lung cancer strain NCI-H441
Assay type: cell-based
Where a SMILES comes first, the peptide text is derived from it. Bridges are numbered along the chain shown (N, C = ends). [ ]: non-standard residue; d: D form. The star is where a group is joined. hPhe(3-Cl-4-CF3) = N[C@@H](CCc1ccc(C(F)(F)F)c(Cl)c1)C(=O)O; NPrPhe(4-CF3) = CCCN[C@@H](Cc1ccc(C(F)(F)F)cc1)C(=O)O; NMeGly(cPent) = CN[C@H](C(=O)O)C1CCCC1; NMeD = CN[C@@H](CC(=O)O)C(=O)O; Ac4c(3-oxa) = NC1(C(=O)O)COC1; NMeL = CN[C@@H](CC(C)C)C(=O)O; Morpholide = C1CN(*)CCO1; Sar = CNCC(=O)O
measured property: log10 of IC50 (log10 of the value in nM)
Record value = log10 of IC50 given in nM.

compound	tested system	numeric value
CCO[C@@H]1C[C@H]2C(=O)NC3(CCC3)C(=O)N(C)[C@@H](C3CCCC3)C(=O)N(C)[C@H](C(=O)N3CCCC3)CC(=O)N(C)[C@@H](CC)C(=O)N[C@@H]([C@@H](C)CC)C(=O)N(C)CC(=O)N(C)[C@H]3C/C=C\CCN(C3=O)[C@@H](Cc3ccc(C(F)(F)F)cc3)C(=O)N(C)CC(=O)N[C@@H](CCc3cc(F)c(C(F)(F)F)c(F)c3)C(=O)N2C1 [PP1090]	human lung cancer strain NCI-H441	1.32
CCOC[C@H]1C(=O)N[C@@H]([C@@H](C)CC)C(=O)N(C)CC(=O)N(C)[C@H]2C/C=C\CCN(C2=O)[C@@H](CC2CCC(F)(F)CC2)C(=O)N(C)CC(=O)N[C@@H](CCc2ccc(C(F)(F)F)c(OC)c2)C(=O)N2C[C@H](OCC)C[C@H]2C(=O)N(C)C2(CCC2)C(=O)N(C)[C@@H](C(CC)CC)C(=O)N(C)[C@H](C(=O)N(C)C)CC(=O)N1C [PP2347]	human lung cancer strain NCI-H441	2.16
CC[C@H](C)[C@@H]1NC(=O)[C@H](CC(C)C)N(C)C(=O)C[C@@H](C(=O)N2CCOCC2)N(C)C(=O)[C@H](C2CCCC2)N(C)C(=O)C2(CCC2)NC(=O)[C@@H]2CCCN2C(=O)[C@H](CCc2cc(F)c(C(F)(F)F)c(F)c2)NC(=O)CN(C)C(=O)[C@H](Cc2ccc(C(F)(F)F)cc2)N2CCCCC[C@@H](C2=O)N(C)C(=O)CN(C)C1=O [PP0497]	human lung cancer strain NCI-H441	1.65

Hi, could you look up log10 of IC50 for each item in my list?
1. CCCN(C)C(=O)[C@@H]1CC(=O)N(C)[C@@H](CC)C(=O)N[C@@H]([C@@H](C)CC)C(=O)N(C)CC(=O)N(C)[C@H]2C/C=C\CCN(C2=O)[C@@H](Cc2ccc(C(F)(F)F)cc2)C(=O)N(C)CC(=O)N[C@@H](CCc2cc(F)c(C(F)(F)F)c(F)c2)C(=O)N2C[C@H](OCC)C[C@H]2C(=O)NC2(CCC2)C(=O)N(C)[C@@H](C2CCCC2)C(=O)N1C [PP1699]
2. CCCN(C)C(=O)[C@@H]1CC(=O)N(C)[C@@H](C2CCC2)C(=O)N[C@@H]([C@@H](C)CC)C(=O)N(C)CC(=O)N(C)[C@H]2C/C=C\CCN(C2=O)[C@@H](Cc2ccc(C(F)(F)F)cc2)C(=O)N(C)CC(=O)N[C@@H](CCc2ccc(C(F)(F)F)c(OC)c2)C(=O)N2C[C@@H](C)C[C@H]2C(=O)NC2(CCC2)C(=O)N(C)[C@@H](C2CCCC2)C(=O)N1C [PP2072]
3. CC[C@H](C)[C@@H]1NC(=O)[C@H](C)N(C)C(=O)C[C@@H](C(=O)N2CCOCC2)N(C)C(=O)[C@H](C2CCCC2)N(C)C(=O)C2(CCC2)NC(=O)[C@@H]2CC(F)(F)CN2C(=O)[C@H](CCc2cc(F)c(C(F)(F)F)c(F)c2)NC(=O)CN(C)C(=O)[C@H](Cc2ccc(C(F)(F)F)cc2)N2CCCCC[C@@H](C2=O)N(C)C(=O)CN(C)C1=O [PP0471]
4. CC[C@H](C)[C@@H]1NC(=O)[C@H](CC(F)F)N(C)C(=O)C[C@@H](C(=O)N(C)C)N(C)C(=O)[C@H](C2CCCC2)N(C)C(=O)C2(CC(C)(C)C2)NC(=O)[C@@H]2C[C@H](C)CN2C(=O)[C@H](CCc2cc(F)c(C(F)(F)F)c(F)c2)NC(=O)CN(C)C(=O)[C@H](Cc2ccc(C(F)(F)F)cc2)N2CC/C=C\C[C@@H](C2=O)N(C)C(=O)CN(C)C1=O [PP1658]

[0.40, 0.93, 1.58, 0.58]

Dear colleague, could you send me log10 of IC50 for each of the items below? Thanks.
1. CC[C@H](C)[C@@H]1NC(=O)[C@@H]2CCC/C=C/c3ccc(cc3)C[C@@H](C(=O)N(C)CC(=O)N[C@@H](CCc3ccc(Cl)c(Cl)c3)C(=O)N3C[C@H](OC(C)C)C[C@H]3C(=O)NC3(CC(C)(C)C3)C(=O)N(C)[C@@H](C3CCCC3)C(=O)N(C)[C@H](C(=O)N3CCCC3)CC(=O)N2C)N2CC/C=C\C[C@@H](C2=O)N(C)C(=O)CN(C)C1=O [PP2596]
2. CCCN1C(=O)CN(C)C(=O)CN(C)C(=O)[C@H]([C@@H](C)CC)NC(=O)[C@H](CC(C)C)N(C)C(=O)C[C@@H](C(=O)N2CCOCC2)N(C)C(=O)[C@H](C2CCCC2)N(C)C(=O)C2(COC2)NC(=O)[C@@H]2CCCN2C(=O)[C@H](CCc2ccc(C(F)(F)F)c(Cl)c2)NC(=O)CN(C)C(=O)[C@@H]1Cc1ccc(C(F)(F)F)cc1 [PP1922] ([NMeL]I[Sar][Sar][NPrPhe(4-CF3)][Sar][hPhe(3-Cl-4-CF3)]P[Ac4c(3-oxa)][NMeGly(cPent)][NMeD]-Morpholide; lactam N-11)
3. CCO[C@@H]1C[C@H]2C(=O)NC3(CC(C)(C)C3)C(=O)N(C)[C@@H](C3CCCC3)C(=O)N(C)[C@H](C(=O)N(CC)CC)CC(=O)N(C)[C@@H](CC)C(=O)N[C@@H]([C@@H](C)CC)C(=O)N(C)CC(=O)N(C)[C@H]3C/C=C\CCN(C3=O)[C@@H](Cc3ccc(C)cc3)C(=O)N(C)CC(=O)N[C@@H](CCc3ccc(C(F)(F)F)c(Cl)c3)C(=O)N2C1 [PP1883]
4. CCCN(C)C(=O)[C@@H]1CC(=O)N(C)[C@@H](CC(F)F)C(=O)N[C@@H]([C@@H](C)CC)C(=O)N(C)CC(=O)N(C)[C@H]2C/C=C\CCN(C2=O)[C@@H](Cc2ccc(C(F)(F)F)cc2)C(=O)N(C)CC(=O)N[C@@H](CCc2cc(F)c(C(F)(F)F)c(F)c2)C(=O)N2C[C@H](OCC)C[C@H]2C(=O)NC2(CCC2)C(=O)N(C)[C@@H](C2CCCC2)C(=O)N1C [PP1700]

1.14
1.64
1.38
0.56
